Target or test system: Thymidylate synthase (Homo sapiens, UniProt P04818)
Sequence (P04818 2-313 limits assumed): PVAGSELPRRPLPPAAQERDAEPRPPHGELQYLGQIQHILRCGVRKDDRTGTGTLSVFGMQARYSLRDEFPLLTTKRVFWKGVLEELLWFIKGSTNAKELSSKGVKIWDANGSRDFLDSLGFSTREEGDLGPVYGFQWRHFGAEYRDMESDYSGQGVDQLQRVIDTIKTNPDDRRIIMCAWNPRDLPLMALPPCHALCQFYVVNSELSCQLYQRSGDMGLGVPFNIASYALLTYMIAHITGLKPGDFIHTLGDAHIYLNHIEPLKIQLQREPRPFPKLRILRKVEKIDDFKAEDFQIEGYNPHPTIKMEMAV
Experiment summary: Inhibition of human thymidylate synthase expressed in Escherichia coli BL21 at 100 uM
Assay metric: inhibition

                            molecule_smiles  assay_metric  result
0  CN1CCN(c2nc3ccccc3n3c(-c4ccccc4)nnc23)CC1    inhibition   < 10%
1    Cc1ccc(-c2nnc3c(N(C)C)nc4ccccc4n23)cc1    inhibition     41%
2   Fc1ccccc1-c1nnc2c(C(F)(F)F)nc3ccccc3n12    inhibition     17%
3  FC(F)(F)c1ccc(-c2nnc3c(C(F)(F)F)nc4ccccc4n23)cc1    inhibition     22%

###

Here, each record is paired with measured inhibition data.
Target or test system: Thymidylate synthase (Homo sapiens, UniProt P04818)
Experiment summary: Inhibition of human thymidylate synthase expressed in Escherichia coli BL21 at 50 uM
Assay metric: inhibition (%)

In [3]: df
Out[3]:
                            molecule_smiles  assay_metric  inequality_sign  quantitative_result
0   O=C(CSc1nc2ccccc2nc1-c1ccccc1)N1CCCCCC1    inhibition                <                    5
1     C=CCn1cnc2c(c1=O)c1nc3ccccc3nc1n2CCCC    inhibition                <                    5
2  Cc1ccc(S(=O)(=O)N(C)c2nc3ccccc3n3c(-c4ccccc4)nnc23)cc1    inhibition                =                   70
3          Clc1nc2ccccc2n2c(-c3ccccc3)nnc12    inhibition                =                   28
4  O=C(Nc1cc(C(F)(F)F)ccc1Cl)c1ccc2nccnc2c1    inhibition                <                    5

###

Target or test system: UniProt:P00374
Sequence (whole entry): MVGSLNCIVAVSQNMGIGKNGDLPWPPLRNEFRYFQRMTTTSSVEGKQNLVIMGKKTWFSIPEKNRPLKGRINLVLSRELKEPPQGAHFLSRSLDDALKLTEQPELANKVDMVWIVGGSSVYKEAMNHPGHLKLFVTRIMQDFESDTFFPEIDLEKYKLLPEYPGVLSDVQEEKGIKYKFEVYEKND
Experiment summary: Inhibition of human DHFR expressed in Escherichia coli BL21 at 100 uM
Active and inactive are the calls of the source. No cut-off for these calls is given here.
Assay metric: inhibition

>>> df
                            molecule_smiles    result
0  Clc1ccc(Oc2nc3ccccc3n3c(-c4ccc(Cl)cc4)nnc23)cc1  inactive
1    Cc1ccc(-c2nnc3c(N(C)C)nc4ccccc4n23)cc1  inactive
2  CN1CCN(c2nc3ccccc3n3c(-c4ccccc4)nnc23)CC1       40%
3   Fc1ccccc1-c1nnc2c(C(F)(F)F)nc3ccccc3n12       10%
4  Cc1ccc(S(=O)(=O)N(C)c2nc3ccccc3n3c(-c4ccccc4)nnc23)cc1  inactive
5  FC(F)(F)c1ccc(-c2nnc3c(C(F)(F)F)nc4ccccc4n23)cc1       10%
